Entries annotated with measured IC50
- SUBJECT_OF_TEST: human NaV subtype, like NaV 1.7 (Homo sapiens, UniProt Q15858)
- Sequence (Q15858 whole entry): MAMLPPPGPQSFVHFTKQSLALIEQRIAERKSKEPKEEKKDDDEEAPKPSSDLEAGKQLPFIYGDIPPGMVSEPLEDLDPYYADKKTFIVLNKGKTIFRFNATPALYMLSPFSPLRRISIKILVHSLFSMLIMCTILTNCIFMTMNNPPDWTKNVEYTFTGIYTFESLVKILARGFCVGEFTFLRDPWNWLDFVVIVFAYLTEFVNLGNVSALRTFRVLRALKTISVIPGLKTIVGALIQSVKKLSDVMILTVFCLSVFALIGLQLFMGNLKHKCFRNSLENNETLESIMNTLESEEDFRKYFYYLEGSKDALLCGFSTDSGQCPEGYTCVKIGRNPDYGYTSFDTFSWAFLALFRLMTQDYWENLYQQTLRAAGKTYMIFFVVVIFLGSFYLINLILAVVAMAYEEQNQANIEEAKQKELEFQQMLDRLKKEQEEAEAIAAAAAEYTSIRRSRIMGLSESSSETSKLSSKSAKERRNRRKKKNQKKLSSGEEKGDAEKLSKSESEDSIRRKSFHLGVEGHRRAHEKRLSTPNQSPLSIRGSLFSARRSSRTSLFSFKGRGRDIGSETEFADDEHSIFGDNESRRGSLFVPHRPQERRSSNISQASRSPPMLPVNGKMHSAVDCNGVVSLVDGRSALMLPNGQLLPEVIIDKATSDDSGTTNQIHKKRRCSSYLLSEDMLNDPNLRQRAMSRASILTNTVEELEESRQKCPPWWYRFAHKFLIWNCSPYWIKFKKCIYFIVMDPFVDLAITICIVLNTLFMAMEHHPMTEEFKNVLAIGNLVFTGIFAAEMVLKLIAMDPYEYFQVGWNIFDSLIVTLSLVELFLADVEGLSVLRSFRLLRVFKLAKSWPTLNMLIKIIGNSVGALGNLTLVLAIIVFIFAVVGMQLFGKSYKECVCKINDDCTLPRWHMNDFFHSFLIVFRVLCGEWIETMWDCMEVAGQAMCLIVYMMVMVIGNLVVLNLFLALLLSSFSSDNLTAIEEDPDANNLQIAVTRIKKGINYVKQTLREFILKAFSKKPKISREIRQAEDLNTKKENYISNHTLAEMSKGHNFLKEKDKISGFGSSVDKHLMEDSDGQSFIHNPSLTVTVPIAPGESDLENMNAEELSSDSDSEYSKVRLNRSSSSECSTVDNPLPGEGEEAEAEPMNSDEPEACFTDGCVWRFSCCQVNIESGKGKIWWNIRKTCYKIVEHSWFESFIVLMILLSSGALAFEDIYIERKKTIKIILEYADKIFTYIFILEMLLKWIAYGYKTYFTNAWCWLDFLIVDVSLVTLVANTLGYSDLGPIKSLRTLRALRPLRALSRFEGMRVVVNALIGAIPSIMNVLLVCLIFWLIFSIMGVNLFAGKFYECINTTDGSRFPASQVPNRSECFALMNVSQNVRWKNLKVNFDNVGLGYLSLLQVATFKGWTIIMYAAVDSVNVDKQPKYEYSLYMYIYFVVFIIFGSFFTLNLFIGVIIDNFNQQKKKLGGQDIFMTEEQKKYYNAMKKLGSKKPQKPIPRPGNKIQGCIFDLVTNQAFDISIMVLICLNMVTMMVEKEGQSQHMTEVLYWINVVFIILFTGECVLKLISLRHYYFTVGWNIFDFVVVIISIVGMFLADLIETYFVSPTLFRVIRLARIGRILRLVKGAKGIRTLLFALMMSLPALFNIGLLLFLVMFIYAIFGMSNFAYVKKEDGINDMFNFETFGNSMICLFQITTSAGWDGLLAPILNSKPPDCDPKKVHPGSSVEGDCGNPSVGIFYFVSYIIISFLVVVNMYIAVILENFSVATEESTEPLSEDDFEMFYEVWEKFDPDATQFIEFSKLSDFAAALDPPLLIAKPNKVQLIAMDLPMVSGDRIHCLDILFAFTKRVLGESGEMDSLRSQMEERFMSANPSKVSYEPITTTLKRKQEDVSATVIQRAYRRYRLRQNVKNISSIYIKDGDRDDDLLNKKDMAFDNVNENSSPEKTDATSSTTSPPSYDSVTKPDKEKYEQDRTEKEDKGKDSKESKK
- PROCEDURE_TEXT: E-VIPR optical membrane potential assay with electrical stimulation
- EXPERIMENTAL_CONTEXT: active against one or more sodium channels; assay and NaV subtype not specified for Table 3; read-out: IC50 Binned Activity Data

Example cases with answers are listed next.
INSERT INTO measurements (compound, subject_of_test, recorded_result) VALUES
  ('COCOC1Cc2ccccc2OC12CCN(C(=O)c1ccc(OC(C)C)c(OC)c1)CC2 (stereo not shown)', 'human NaV subtype, like NaV 1.7 (Homo sapiens, UniProt Q15858)', '≤ 2 µM'),
  ('COc1cc(C(=O)N2CCC3(CC2)C[C@@H](O)c2cc(F)ccc2O3)ccc1OC(C)C', 'human NaV subtype, like NaV 1.7 (Homo sapiens, UniProt Q15858)', '≤ 2 µM'),
  ('COc1cc(C(=O)N2CCC3(CC2)CC(Cn2cccn2)c2ccccc2O3)ccc1OC(C)C (stereo not shown)', 'human NaV subtype, like NaV 1.7 (Homo sapiens, UniProt Q15858)', '≤ 2 µM');

Query: API: value(readout= IC50, system= human NaV subtype, like NaV 1.7 (Homo sapiens, UniProt Q15858), query= COc1cc(C(=O)N2CCC3(CC2)CC(OCCS(C)(=O)=O)c2ccccc2O3)ccc1OC(C)C (stereo not shown) )
Response: > 5 µM

----------
- SUBJECT_OF_TEST: human NaV subtype, like NaV 1.7 (Homo sapiens)
- PROCEDURE_TEXT: E-VIPR optical membrane potential assay with electrical stimulation
- EXPERIMENTAL_CONTEXT: active against one or more sodium channels; assay and NaV subtype not specified for Table 3; read-out: IC50 Binned Activity Data
- Text: Assays for Detecting and Measuring NaV Inhibition Properties of Compound E-VIPR Optical Membrane Potential Assay Method with Electrical Stimulation Sodium channels are voltage-dependent proteins that can be activated by inducing membrane voltage changes by applying electric fields. The electrical stimulation instrument and methods of use are described in Ion Channel Assay Methods PCT/US01/21652, herein incorporated by reference and are referred to as E-VIPR. […] 7) Read Plate on E-VIPR. […]
VALUE_TYPE: IC50

Query: // IC50 lookup, key: COc1cc(C(=O)N2CCC3(CC2)CC(C(C)OC)c2ccccc2O3)ccc1OC(C)C (stereo not drawn)
Response: ≤ 2 µM

Query: // IC50 lookup, key: CC(C)OC1CC2(CCN(C(=O)c3ccccc3OC(F)F)CC2)Oc2ccccc21 (stereo not drawn)
Response: ≤ 2 µM

Query: // IC50 lookup, key: CC(C)O[C@@H]1CC2(CCN(C(=O)c3ccc(N4CCOCC4)cn3)CC2)Oc2ccc(F)cc21
Response: ≤ 2 µM

----------
- SUBJECT_OF_TEST: human NaV subtype, like NaV 1.7 (Homo sapiens, UniProt Q15858)
- PROCEDURE_TEXT: E-VIPR optical membrane potential assay with electrical stimulation
- EXPERIMENTAL_CONTEXT: active against one or more sodium channels; assay and NaV subtype not specified for Table 3; read-out: IC50 Binned Activity Data
Entries annotated with measured IC50

INSERT INTO measurements (molecule, recorded_result) VALUES
  ('CNCc1cc(C(=O)N2CCC3(CC2)C[C@@H](OC(C)C)c2cc(F)ccc2O3)ccc1OC(C)C', '> 5 µM'),
  ('COc1ccccc1C(=O)N1CCC2(CC1)CC(C(C)C)c1ccccc1O2 (stereo not drawn)', '> 5 µM');

Let us examine a further case.
Query: // IC50 lookup, key: CC(C)Oc1ccc(C(=O)N2CCC3(CC2)C[C@@H](OC(C)C)c2cc(F)ccc2O3)cc1C#N
Response: ≤ 2 µM

Values were extracted from patent US10385070B2.
